- Assay procedure: Cytotoxicity against human SH-SY5Y cells assessed as cell viability at 100 uM incubated for 24 hrs by MTT assay relative to control
- Format: cell-based
- Test settings: read-out: Activity
Property name: viability at 24 h, 100 µM (%)
Answer with a number only, understood to be in %.

Consider the compound shown here: O[C@@H]1C[C@H]2CC[C@@H]1NC2 What is its recorded viability at 24 h, 100 µM?
59

====

- Assay procedure: Antagonist activity at NMDA receptor (unknown origin)
- Parameters: species or system Homo sapiens
Property name: pKi
In plain terms, pKi is the concentration in mol/L turned into minus its base-10 logarithm.

Consider the molecule shown here: NC12CC3CC(CC(C3)C1)C2 What is its recorded pKi?
5.00

====

- Assay procedure: Cytotoxicity against human SH-SY5Y cells assessed as cell viability at 10 uM incubated for 24 hrs by MTT assay relative to control
- Type: cell-based
- Test settings: read-out: Activity
Property name: viability at 24 h, 10 µM (%)
Answer with a number only, understood to be in %.

Example results:
O=C1C=C[C@H](NCc2ccccc2)[C@@H]2[C@H]1[C@H]1C=C[C@@H]2C1 = 108
O=C1CCC(=O)[C@H]2[C@@H]1[C@H]1C=C[C@H]2C1 = 96.6
C1C2OC2[C@H]2[C@@H]1[C@H]1C[C@@H]2C2OC21 (stereo not given in full) = 94.4
O=C1CC[C@H](O)C2C3C=C[C@@H](C3)C12 (single isomer, unassigned) = 96.3

Consider the record given below.
Consider the compound shown here: O=C1CC[C@H]2C[C@@H]1CCC2=O What is its recorded viability at 24 h, 10 µM?
125

====

- Assay procedure: Cytotoxicity against human SH-SY5Y cells assessed as cell viability at 10 uM incubated for 24 hrs by MTT assay relative to control
- Format: cell-based
- Test settings: read-out: Activity
Property name: viability at 24 h, 10 µM (%)
Answer with a number only, understood to be in %.

Example results:
O=C1C2C3C=CC(C3)C2C(=O)C2C3C=CC(C3)C12 (stereo not given) = 95.9
O[C@@H]1C[C@H]2CC[C@@H]1NC2 = 96.3
C1=C[C@H]2CC[C@@H]1[C@H]1CNC[C@H]12 = 108
O=C1C=C[C@H](NN2CCCCC2)[C@@H]2[C@H]1[C@H]1C=C[C@@H]2C1 = 93.7

Consider the record given below.
Consider the molecule shown here: O=C1C=CC(=O)[C@H]2[C@@H]1[C@H]1C=C[C@H]2C1 What is its recorded viability at 24 h, 10 µM?
97.7

====

- Assay procedure: Displacement of [3H]MK801 from NMDA receptor (unknown origin) by radioligand binding assay
- Set-up: species or system Homo sapiens
pKi overview
In plain terms, pKi is the concentration in mol/L turned into minus its base-10 logarithm.

c1ccc(C2(N3CCCCC3)CCCCC2)cc1 = 7.23

Consider the record given below.
Consider the molecule shown here: CN[C@@]1(c2ccccc2Cl)CCCCC1=O What is its recorded pKi?
6.18

====

- Assay procedure: Displacement of [3H]MK801 from NMDA receptor in human brain by radioligand binding assay
- Assay type: tissue-based
Property name: pKi
In plain terms, pKi is the concentration in mol/L turned into minus its base-10 logarithm.

Consider the compound shown here: CC12CC3CC(C)(C1)CC(N)(C3)C2 [MEMANTINE] What is its recorded pKi?
6.27

====

- Assay procedure: Displacement of [3H]MK801 from NMDA receptor in Sprague-Dawley rat cerebral cortical membrane incubated for 60 mins by liquid scintillation counting analysis
- Format: cell membranes, Cerebral cortex
Property name: Ki

Consider the molecule shown here: C[C@@]12N[C@@H](Cc3ccccc31)c1ccccc12 What is its recorded Ki?
37.2 nM

====

viability at 10 µM overview
- Test system: SH-SY5Y
- Assay procedure: Neuroprotective activity against MPP+-induced neurotoxicity in human SH-SY5Y cells assessed as cell viability at 10 uM pretreated for 2 hrs followed by MPP+ challenge and measured after 24 hrs by MTT assay relative to control
- Type: functional
- Test settings: time 26 hrs, read-out: Activity
Answer with a number only, understood to be in %.

O=C1C2C3C=CC(C3)C2C(=O)C2C3C=CC(C3)C12 (stereo not given) = 41.4
O=C1C=C[C@H](NN2CCCCC2)[C@@H]2[C@H]1[C@H]1C=C[C@@H]2C1 = 33.9
O=C1CCC(=O)[C@H]2[C@@H]1[C@H]1C=C[C@H]2C1 = 40.6

GET /values?readout=viability at 10 µM&system=SH-SY5Y&item= O=C1C=C[C@H](NCc2ccccc2)[C@@H]2[C@H]1[C@H]1C=C[C@@H]2C1
33.7

====

- Test system: SH-SY5Y
- Assay procedure: Cytotoxicity against human SH-SY5Y cells assessed as reduction in cell viability at 10 to 100 uM incubated for 24 hrs by MTT assay
- Assay type: cell-based
- Test settings: dose 10-100 µM
Property name: Activity

Example results:
C1=C[C@H]2CC[C@@H]1[C@H]1CNC[C@H]12 = Non-Toxic
O=C1C2C3C=CC(C3)C2C(=O)C2C3C=CC(C3)C12 (stereo not given) = Non-Toxic
O=C1C=C[C@H](NN2CCCCC2)[C@@H]2[C@H]1[C@H]1C=C[C@@H]2C1 = Non-Toxic
O=C1CC[C@H](O)C2C3C=C[C@@H](C3)C12 (single isomer, unassigned) = Non-Toxic

Consider the record given below.
Consider the molecule shown here: O=C1C=C[C@H](NCc2ccccc2)[C@@H]2[C@H]1[C@H]1C=C[C@@H]2C1 What is its recorded Activity?
Toxic

====

- System: SH-SY5Y
- Assay procedure: Neuroprotective activity against MPP+-induced neurotoxicity in human SH-SY5Y cells assessed as cell viability at 10 uM pretreated for 2 hrs followed by MPP+ challenge and measured after 24 hrs by MTT assay relative to control
- Type: functional
- Test settings: time 26 hrs, read-out: Activity
I'd appreciate it if you marked entries Fulfilled when viability at 10 µM is lower than 30% and Not fulfilled when it is not.

Would you please look over these solved cases?
O[C@@H]1C[C@H]2CC[C@@H]1NC2 = Fulfilled
C1C2OC2[C@H]2[C@@H]1[C@H]1C[C@@H]2C2OC21 (stereo partly specified) = Fulfilled
O=C1CC[C@H]2C[C@@H]1CCC2=O = Fulfilled
O=C1C=CC(=O)[C@H]2[C@@H]1[C@H]1C=C[C@H]2C1 = Not fulfilled
C1=C[C@H]2CC[C@@H]1[C@H]1CNC[C@H]12 = Fulfilled

Note: attention shifts to another entry.
Consider the molecule O=C1CC[C@H](O)C2C3C=C[C@@H](C3)C12 (single isomer, unassigned) . Is its viability at 10 µM strictly less than 30%?
Not fulfilled

These entries and their values trace back to ChEMBL document CHEMBL4765400.
